test: chemical genetic growth profiling, strain panel (AID 1159580);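 also: tested at 20 µM; growth read once vehicle control cultures reached saturation at 30 °C; 1 = growth at the plate median or of vehicle wells; lower values mean less growth of the strain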; settings: S. cerevisiae deletion strains, growth OD, locus YNL271C, strain bni1, active compounds read low
Out of some 5,500 compounds screened, about 2,000 (36%) were called active. Another 18% or so got no clear call; they are omitted. Some of the results follow.
Kindly supply the reported normalized growth values for the records listed here.
Field format: numeric only.

Q) Sample "COc1ccc(C(=O)N2CCCC2=O)cc1" — what was its normalized growth?
A) 0.986

Q) // same read-out, input: NCC(CC(=O)O)c1ccc(Cl)cc1 (stereo unspecified)
A) 0.987

Q) // same read-out, input: C=C1C2CC[C@@]3(C)[C@H](c4ccoc4)OC(=O)C[C@]13O[C@H]1CC(O)C(C)(C)C(CC(=O)OC)[C@@]21C (stereo partly specified)
A) 1.01

Q) // same read-out, input: C=C1C(C2(C)C=CC(=O)C(C)(C)C2CC(=O)OC)CC[C@@]2(C)[C@H](c3ccoc3)OC(=O)C3OC132 (stereo partly specified)
A) 0.976

Q) // same read-out, input: "O=C(Nc1ccccc1)Nc1ccccc1"
A) 0.978

Q) // same read-out, input: "O=C(Nc1ccccc1)c1ccccc1O"
A) 0.959

Q) // same read-out, input: CC(=O)O[C@H]1CC[C@]2(C)C3=CC(=O)[C@@]4(C)C(C[C@@H]5OC6(OCC(C)CC6Br)[C@@H](C)[C@@H]54)C3CC[C@H]2C1 (stereo partly specified)
A) 0.993

Q) // same read-out, input: "COc1cc(OC)c2c3c1C(=O)c1c(OC)cc(C)c4c(OC)cc(c-3c14)C(C)(C)C2=O"
A) 0.994

Q) // same read-out, input: "Cc1nc2ccccn2c(=O)c1CCN1CCC(C(=O)c2ccc(F)cc2)CC1"
A) 0.977

Q) // same read-out, input: "O=c1[nH]cnc2[nH]ncc12"
A) 1.02

Q) // same read-out, input: CCCCCC1C(=O)CCC1CC(=O)O (stereo unspecified)
A) 0.969

----------
test: chemical genetic growth profiling, strain panel (AID 1159580);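 also: tested at 20 µM; growth read once vehicle control cultures reached saturation at 30 °C; 1 = growth at the plate median or of vehicle wells; lower values mean less growth of the strain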; details: S. cerevisiae deletion strains, growth OD, locus YJL187C, strain SWE1 (second series)
Hit rate of the full screen: of about 5,500 compounds, about 2,000 (36%) were called active. Roughly 18% stayed inconclusive and do not appear here. No stated cut-off is given here; in the data, active means normalized growth mostly below about 0.91 (no sharp cut-off); inconclusive means no clear call, values can overlap the other calls; inactive means mostly above about 0.92. The list shows a part of the results.
Returns: one label drawn from yes (1) = active, no (0) = inactive

Q) Can you look up the reported call for "CN(C)N=Nc1nc[nH]c1C(N)=O" for me?
A) no (0)

Q) // same read-out, input: CC1CC2C3CC(F)C4=CC(=O)C=CC4(C)C3(F)C(O)CC2(C)C1C(=O)COC(=O)C(C)(C)C (stereo not drawn)
A) no (0)

Q) // same read-out, input: "COC(=O)c1c(C)cc(OC(=O)c2c(C)cc(O)c(C=O)c2O)c(C)c1O"
A) no (0)

Q) // same read-out, input: "COc1cc(OC)c2c3c1C(=O)c1c(OC)cc(C)c4c(OC)cc(c-3c14)C(C)(C)C2=O"
A) no (0)

Q) // same read-out, input: "O=c1cc(-c2ccccc2)oc2cc(O)c(O)c(O)c12"
A) yes (1)

Q) // same read-out, input: "N[C@@H](Cc1cc(I)c(Oc2cc(I)c(O)c(I)c2)c(I)c1)C(=O)O"
A) no (0)

Q) // same read-out, input: "CN1CCN(C2=Nc3ccccc3Oc3ccc(Cl)cc32)CC1"
A) no (0)

Q) // same read-out, input: OC1=Cc2c(O)cc(O)cc2OC1(O)c1ccc(O)c(O)c1 (stereo not drawn)
A) no (0)

Q) // same read-out, input: C=C1C2CCC3(C)C(c4ccoc4)OC(=O)CC13OC1CC(OC(C)=O)C(C)(C)C(CC(=O)OC)C12C (stereo not drawn)
A) no (0)

Q) // same read-out, input: CC(CCC(=O)O)[C@H]1CCC2C3CC[C@@H]4C[C@H](O)CC[C@]4(C)C3C[C@H](O)[C@@]21C (stereo partly drawn)
A) no (0)

Q) // same read-out, input: CC(CCC(=O)O)[C@H]1CCC2C3C[C@H](O)[C@@H]4C[C@H](O)CC[C@]4(C)C3CC[C@@]21C (stereo partly drawn)
A) no (0)

Q) // same read-out, input: "CCCCC[C@H](CC(=O)NO)C(=O)N[C@H](C(=O)N1CCC[C@H]1CO)C(C)C"
A) no (0)

Q) // same read-out, input: "CCC(=O)Nc1ccc(Cl)c(Cl)c1"
A) no (0)

Q) // same read-out, input: C=C1C2CC[C@@]3(C)[C@H](c4ccoc4)OC(=O)C[C@]13O[C@H]1CC(=O)C(C)(C)C(CC(=O)OC)[C@@]21C (stereo partly drawn)
A) no (0)

Q) // same read-out, input: "COc1cc(OC)c(OC)cc1C=O"
A) no (0)

Q) // same read-out, input: "CCOC(=O)[C@H](CCc1ccccc1)N[C@@H](C)C(=O)N1Cc2ccccc2C[C@H]1C(=O)O"
A) no (0)

Q) // same read-out, input: "N[C@@H]1[C@@H](O)[C@H](O)[C@@H](CO)O[C@H]1O"
A) no (0)

Q) // same read-out, input: CC(CN(C)C)CN1c2ccccc2CCc2ccccc21 (stereo not drawn)
A) no (0)

Q) // same read-out, input: "COc1cc([C@@H]2c3cc4c(cc3[C@H](OC(C)=O)[C@H]3COC(=O)[C@@H]23)OCO4)cc(OC)c1OC"
A) no (0)

Q) // same read-out, input: "C=C1[C@H]2CC[C@@]3(C)[C@H](c4ccoc4)OC(=O)C[C@]13O[C@H]1C[C@H](O)C(C)(C)[C@H](CC(=O)OC)[C@]12C"
A) no (0)

Q) // same read-out, input: "S=P(N1CC1)(N1CC1)N1CC1"
A) no (0)

Q) // same read-out, input: "COc1ccc(C(=O)N2CCCC2=O)cc1"
A) no (0)

Q) // same read-out, input: "C[C@@H](N)[C@@H](O)c1ccccc1"
A) no (0)

Q) // same read-out, input: "N[C@@H](Cc1cc(I)c(Oc2ccc(O)c(I)c2)c(I)c1)C(=O)O"
A) no (0)

Q) // same read-out, input: "CO[C@]12C[C@@H](COC(=O)c3cncc(Br)c3)CN(C)[C@@H]1Cc1cn(C)c3cccc2c13"
A) no (0)

Q) // same read-out, input: CSc1ccc2c(c1)N(CCC1CCCCN1C)c1ccccc1S2 (stereo not drawn)
A) yes (1)

Q) // same read-out, input: "Cc1cc(=O)oc2c(O)c(O)ccc12"
A) no (0)

Q) // same read-out, input: "COc1cc(C)c(C(=O)Oc2cc(C)c(C(=O)O)c(O)c2C)c(OC)c1C"
A) no (0)
